- Test system: LAMPU (purple deadnettle)
- assay.protocol: Pre-plant incorporated (PPI) herbicidal activity, cool season
- Format: in vivo, Lamium purpureum
- condition.notes: pre-plant incorporated; lowest tested rate with 80% or greater inhibition; about 14 days
quantity.kind: PPI activity GR80, LAMPU (g/ha)
Give a bare numeral; the unit g/ha is implied.

Use the examples below as a reference point.
CCN(CC)C(=O)n1cnc(S(=O)(=O)C(F)F)n1 : 300
CCN(CC)C(=O)n1cnc(S(=O)(=O)C(F)(F)C(F)F)n1 : 10
C=C(C)CC(F)(F)S(=O)(=O)c1ncn(C(=O)N(CC)CC)n1 : 10
C=CCC(F)(F)S(=O)(=O)c1ncn(C(=O)N(CC)CC)n1 : 30
CCN(CC)C(=O)n1cnc(S(=O)(=O)C(F)(F)SCCOC)n1 : 30

Lab book: PPI activity GR80, LAMPU of CCSC(F)(F)S(=O)(=O)c1ncn(C(=O)N(CC)CC)n1 noted as 100
